# experimental.target: T1, cytochrome c (UniProt P99999 2-105)
# T1 construct: cytochrome c (Cc), a hemeprotein; Carries a heme group; the reduced form was used in ITC and NMR relaxation; 15N-labelled for the NMR titrations; Expression and purification are in the Supporting Information Appendix; also called Cc; hemeprotein Cc; source: details in the Supporting Information
# T1 sequence (P99999 2-105): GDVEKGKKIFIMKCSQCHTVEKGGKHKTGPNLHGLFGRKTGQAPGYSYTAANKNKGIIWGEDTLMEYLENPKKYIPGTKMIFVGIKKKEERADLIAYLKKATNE
# experimental.details: ITC; 1 mM peptide titrated onto 110 or 150 µM reduced Cc; 10 mM sodium phosphate pH 6.3; single binding-site model
# condition.summary: both partners purified
observable: dH (kcal/mol)
Entry rule: numbers only, all in kcal/mol.

| binder | observed.result |
| --- | --- |
| EEERGEKRKRETEDEGEDDD (also called double mutant; source: synthetic peptide (Genecust, France)) [ANP32A_(230-249) Q235E/P241T peptide] | -8.2 |

Reported dH for EEGGKGEKRKRETDDEGEDD (also called ANP32B peptide; source: synthetic peptide (Genecust, France)) [ANP32B_(232-251) peptide] : what is it? -8

Thanks! And EEERGQKRKREPEDEGEDDD (also called ANP32A peptide; NLS-containing peptide; source: synthetic peptide (Genecust, France)) [ANP32A_(230-249) peptide] ? -2.6

Thanks! And EEERGQKRKRETEDEGEDDD (also called single mutant; source: synthetic peptide (Genecust, France)) [ANP32A_(230-249) P241T peptide] ? -6.9

Each recorded value in this set is attributed to paper PMC11948038.
